- study.target: His-hMAGL (recombinant polyhistidine tagged human MAGL protein) (Homo sapiens, UniProt Q99685)
- Construct: made in house; host or cells: E. coli BL21(DE3)
- Sequence (Q99685 whole entry): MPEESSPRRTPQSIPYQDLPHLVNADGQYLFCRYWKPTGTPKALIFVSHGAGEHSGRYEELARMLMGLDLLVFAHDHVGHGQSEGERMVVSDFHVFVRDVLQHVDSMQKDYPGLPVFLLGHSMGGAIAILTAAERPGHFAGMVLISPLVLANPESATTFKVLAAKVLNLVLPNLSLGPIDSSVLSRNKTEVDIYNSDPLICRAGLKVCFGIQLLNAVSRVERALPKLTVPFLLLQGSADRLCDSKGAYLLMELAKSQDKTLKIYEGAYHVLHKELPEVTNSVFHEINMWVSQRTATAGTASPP
- assay.method.text: Measurement of MAGL inhibitory activity (arachidonic acid production from 2-arachidonylglycerol, RapidFire-mass spectrometry)
- Format: biochemical
- condition.parameters: MAGL inhibitory rate at 10 μM test compound; 60 min preincubation with His-hMAGL, 2-arachidonylglycerol substrate, 10 min reaction at room temperature
Record form. Attribute: inhibition at 10 µM. Fill in for each entry.
Give bare numbers, in %.

Field: example entries. Status: answers known.
Cc1cc2c(cc1C(=O)N1CCC(COc3ccc(F)cc3Cl)CC1)NC(=O)CO2
90
Cn1cc(-c2ccc(OCC3CN(C(=O)c4cc5c(cc4F)OCC(=O)N5)C3)c(F)c2)cn1
96
O=C1COc2cc(F)c(C(=O)N3CC(COc4ccc(-c5cnn(C(F)F)c5)cc4F)C3)cc2N1
96

Turning to the following compound.
Complete the entry with inhibition at 10 µM for `Cc1ccc(OCC2CN(C(=O)c3cc4c(cc3F)OCC(=O)N4)C2)cc1`
102

====

- study.target: His-hMAGL (recombinant polyhistidine tagged human MAGL protein) (Homo sapiens)
- Construct: made in house; host or cells: E. coli BL21(DE3)
- assay.method.text: Measurement of MAGL inhibitory activity (arachidonic acid production from 2-arachidonylglycerol, RapidFire-mass spectrometry)
- Type: biochemical
- condition.parameters: MAGL inhibitory rate at 10 μM test compound; 60 min preincubation with His-hMAGL, 2-arachidonylglycerol substrate, 10 min reaction at room temperature
value.kind: inhibition at 10 µM (%)
Give bare numbers, in %.

Below, 4 molecules whose answers are already recorded.
Cc1ccc(OCC2CN(C(=O)c3cc4c(cc3F)OCC(=O)N4)C2)cc1C
100
Cc1ccnc(-c2ccc(OCC3CN(C(=O)c4cc5c(cc4F)OCC(=O)N5)C3)c(F)c2)c1
97
O=C1COc2cc(F)c(C(=O)N3CC(COc4ccc(C(F)(F)F)c(F)c4)C3)cc2N1
104
O=C1COc2ccc(C(=O)N3CCC(COc4cc(Cl)ncc4Cl)CC3)cc2N1
98

Hi there! I need inhibition at 10 µM for each item below, if you can.
1. CS(=O)(=O)c1ccc(COC2CN(C(=O)c3cc4c(cc3F)OCC(=O)N4)C2)cc1
2. O=C1COc2cc(F)c(C(=O)N3CC(COc4ccc5ccccc5c4)C3)cc2N1
3. COC(=O)c1cc(F)ccc1OCC1CCN(C(=O)c2cc3c(cc2F)OCC(=O)N3)CC1

[92, 97, 102]

Parameter requested: inhibition at 10 µM. Apply to each item below.
1. Cc1cc(OCC2CN(C(=O)c3cc4c(cc3F)OCC(=O)N4)C2)ccc1F
2. O=C1COc2cc(F)c(C(=O)N3CC(COc4ccc(-c5ccnc(Cl)c5)cc4F)C3)cc2N1
3. O=C1COc2cc(F)c(C(=O)N3CC(COc4ccc5[nH]ncc5c4)C3)cc2N1

1: 100; 2: 101; 3: 100

====

- study.target: His-hMAGL (recombinant polyhistidine tagged human MAGL protein) (Homo sapiens)
- Construct: made in house; host or cells: E. coli BL21(DE3)
- assay.method.text: Measurement of MAGL inhibitory activity (arachidonic acid production from 2-arachidonylglycerol, RapidFire-mass spectrometry)
- Assay type: biochemical
- condition.parameters: MAGL inhibitory rate at 10 μM test compound; 60 min preincubation with His-hMAGL, 2-arachidonylglycerol substrate, 10 min reaction at room temperature
- Protocol: Furthermore, acetonitrile (50 μL) containing 3 μM arachidonic acid-d8 (Cayman Chemical Company) was added and the mixture was stirred. The amount of arachidonic acid in the obtained enzyme reaction mixture was calculated by measuring by RapidFire-mass spectrometry and correcting by the amount of arachidonic acid-d8. […] MAGL inhibitory rate (%) was calculated according to the following calculation formula. […]
value.kind: inhibition at 10 µM (%)
Give bare numbers, in %.

# annotated cases, reported inhibition at 10 µM shown
O=C1COc2cc(F)c(C(=O)N3CC(COc4ccc(-c5cncc(Cl)c5)cc4F)C3)cc2N1
100
O=C1COc2ccc(C(=O)N3CCC(COc4nc5ccccc5s4)CC3)cc2N1
86
O=C1COc2cc(F)c(C(=O)N3CC(COc4ccccc4)C3)cc2N1
100
N#Cc1ccc(OCC2CCN(C(=O)c3cc4c(cc3F)OCC(=O)N4)CC2)c(Cl)c1
100
CC(C)(C)c1ccccc1OCC1CN(C(=O)c2cc3c(cc2F)OCC(=O)N3)C1
100

Batch request: inhibition at 10 µM per item, same order as input.
1. O=C1COc2ncc(C(=O)N3CCC(COc4ccccc4C(F)(F)F)CC3)cc2N1
2. O=C1COc2cc(F)c(C(=O)N3CC(COc4ccc(C(F)(F)F)cc4F)C3)cc2N1
3. O=C1COc2cc(F)c(C(=O)N3CC(OCc4ccc(Cl)cc4F)C3)cc2N1

[100, 97, 100]

====

- study.target: His-hMAGL (recombinant polyhistidine tagged human MAGL protein) (Homo sapiens, UniProt Q99685)
- Construct: made in house; host or cells: E. coli BL21(DE3)
- assay.method.text: Measurement of MAGL inhibitory activity (arachidonic acid production from 2-arachidonylglycerol, RapidFire-mass spectrometry)
- Assay type: biochemical
- condition.parameters: MAGL inhibitory rate at 10 μM test compound; 60 min preincubation with His-hMAGL, 2-arachidonylglycerol substrate, 10 min reaction at room temperature
value.kind: inhibition at 10 µM (%)
Give bare numbers, in %.

O=C1COc2cc(F)c(C(=O)N3CC(COc4ccc(Oc5ccccc5)cc4)C3)cc2N1
93
O=C1COc2cc(F)c(C(=O)N3CC(COc4c(Cl)cccc4Cl)C3)cc2N1
102
O=C1COc2cc(F)c(C(=O)N3CC(COc4ccc(-c5cccnc5Cl)cc4F)C3)cc2N1
99
CC(C)c1ccc(OCC2CN(C(=O)c3cc4c(cc3F)OCC(=O)N4)C2)cc1
103
O=C1COc2cc(F)c(C(=O)N3CC(COc4cccc(Cl)c4F)C3)cc2N1
101

List the reported inhibition at 10 µM of each compound below.
1. O=C1COc2ccc(C(=O)N3CCC(COc4ccc(Cl)cc4Cl)CC3)cc2N1
2. O=C1COc2cc(F)c(C(=O)N3CC(COc4ccc5ccncc5c4)C3)cc2N1
3. Cc1nc2ccc(OCC3CN(C(=O)c4cc5c(cc4F)OCC(=O)N5)C3)cc2o1

100
100
100

====

- study.target: His-hMAGL (recombinant polyhistidine tagged human MAGL protein) (Homo sapiens, UniProt Q99685)
- Construct: made in house; host or cells: E. coli BL21(DE3)
- assay.method.text: Measurement of MAGL inhibitory activity (arachidonic acid production from 2-arachidonylglycerol, RapidFire-mass spectrometry)
- Format: biochemical
- condition.parameters: MAGL inhibitory rate at 10 μM test compound; 60 min preincubation with His-hMAGL, 2-arachidonylglycerol substrate, 10 min reaction at room temperature
value.kind: inhibition at 10 µM (%)
Numbers only, in %.

Cc1ccc(-c2cc(Cl)ccc2OCC2CN(C(=O)c3cc4c(cc3F)OCC(=O)N4)C2)cn1 [Example 190]
102
O=C1COc2cc(F)c(C(=O)N3CC(COc4ccc(Cl)cc4-c4cncc(Cl)c4)C3)cc2N1 [Example 201]
101
Cc1nc2ccc(OCC3CN(C(=O)c4cc5c(cc4F)OCC(=O)N5)C3)cc2s1 [Example 152]
101
N#Cc1ccc(COC2CN(C(=O)c3cc4c(cc3F)OCC(=O)N4)C2)cc1 [Example 335]
102
Cc1cncc(-c2cc(Cl)ccc2OCC2CN(C(=O)c3cc4c(cc3F)OCC(=O)N4)C2)c1 [Example 202]
100

Hey, can you go through the list below and give me inhibition at 10 µM for every item?
1. O=C1COc2cc(F)c(C(=O)N3CC(COc4cccc(Cl)c4)C3)cc2N1 [Example 112]
2. O=C1COc2cc(F)c(C(=O)N3CC(COc4ccc(F)cc4Cl)C3)cc2N1 [Example 77]
3. O=C1COc2cc(F)c(C(=O)N3CC(COc4ccc(C(F)(F)F)cc4Cl)C3)cc2N1 [Example 116]
4. O=C1COc2ccc(C(=O)N3CC(COc4ccc(F)cc4Cl)C3)cc2N1 [Example 78]
5. O=C1COc2cc(F)c(C(=O)N3CCC(O)(COc4ccc(Cl)cc4Cl)CC3)cc2N1 [Example 74]
6. CC(Oc1cc(F)ccc1F)C1CN(C(=O)c2cc3c(cc2F)OCC(=O)N3)C1 (centres unmarked) [Example 303]

1. 101
2. 105
3. 103
4. 100
5. 102
6. 103

Would you mind giving inhibition at 10 µM for every molecule in the list below?
1. O=C1COc2cc(F)c(C(=O)N3CCC(COc4ccc(F)cc4Br)CC3)cc2N1 [Example 99]
2. O=C1COc2cc(F)c(C(=O)N3CC(COc4ccc5c(c4)OCC5)C3)cc2N1 [Example 273]
3. O=C1COc2cc(F)c(C(=O)N3CC(OCc4ccccc4F)C3)cc2N1 [Example 330]
4. O=C1COc2cc(F)c(C(=O)N3CC(COc4ccc(Cl)cc4-c4cnc(C(F)(F)F)nc4)C3)cc2N1 [Example 222]
5. N#Cc1ccc(Cl)cc1OCC1CN(C(=O)c2cc3c(cc2F)OCC(=O)N3)C1 [Example 137]
6. O=C(c1cc2[nH]c(=O)oc2cc1F)N1CCC(COc2ccc(F)cc2Cl)CC1 [Example 101]

[99, 101, 102, 101, 99, 99]
